Test system: U251 glioblastoma cells
test method notes: XTT viability assay, U251
Format: cell-based
assay conditions: Homo sapiens, U-251; U251, 50 µg/mL, 72 h; read-out: metabolic active cells in % of control
observable: viability at 50 µg/mL (%)
Kindly provide the numeric value in % only, without the unit symbol.

Ask | viability at 50 µg/mL for O=C1C=CC(O)(CCN2C(=O)CCC2=O)C=C1 [Compound 13c] ?
Reply | 0.59

Ask | viability at 50 µg/mL for O=C1C=CC(O)(CCN2C(=O)C3CCCCC3C2=O)C=C1 (centres unmarked) [Compound 13h] ?
Reply | 0.18

Ask | viability at 50 µg/mL for O=C1C=CC(O)(CCN2C(=O)c3ccccc3C2=O)C=C1 [Compound 13a] ?
Reply | 3.21

Others:
Ask | viability at 50 µg/mL for O=C1C=CC(O)(CCN2C(=O)c3cc(Cl)c(Cl)cc3C2=O)C=C1 [Compound 13d] ?
Reply | 1.79

Ask | viability at 50 µg/mL for O=C1C=CC(O)(CCN2C(=O)C3CC=CCC3C2=O)C=C1 (centres unmarked) [Compound 13j] ?
Reply | 76.7

Ask | viability at 50 µg/mL for O=C1C=CC(O)(CCN2C(=O)C=CC2=O)C=C1 [Compound 13b] ?
Reply | -0.41

Ask | viability at 50 µg/mL for O=C1C=CC(O)(CCN2C(=O)C3CCCCC3C2O)C=C1 (centres unmarked) ?
Reply | 2.24

Ask | viability at 50 µg/mL for O=C1C=CC(O)(CCN2Cc3ccccc3C2)C=C1 [Compound 14a] ?
Reply | 95.5

Reference source: paper PMC6278284
